# target.or.test.system: MRGPRX2 (Homo sapiens, UniProt Q96LB1)
# Sequence (Q96LB1 whole entry): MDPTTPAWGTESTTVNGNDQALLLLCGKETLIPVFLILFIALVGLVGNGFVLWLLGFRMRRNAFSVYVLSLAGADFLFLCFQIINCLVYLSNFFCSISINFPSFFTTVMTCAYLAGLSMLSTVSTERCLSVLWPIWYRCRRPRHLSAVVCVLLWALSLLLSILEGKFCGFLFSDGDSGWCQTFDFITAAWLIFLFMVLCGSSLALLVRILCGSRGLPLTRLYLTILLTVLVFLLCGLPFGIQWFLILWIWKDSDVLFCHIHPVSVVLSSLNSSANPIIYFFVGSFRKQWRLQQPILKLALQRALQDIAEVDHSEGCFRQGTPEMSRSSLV
# test.method.notes: MRGPRX2 activation assay (PRESTO-Tango assay)
# experimental.context: MRGPRX2-Tango transfected HTLA cells, followed by EC90 concentration (10 μM) of C48/80
# Procedure: On day 1 of the experiment, HTLA cells were seeded at 1×10^6 cells per 100 mm cell culture dish for transfection. On the following day (day 2), HTLA cells were transfected with Tango MRGPRX2 DNA using the Lipofectamine transfection reagent (Thermo Fischer Scientific). On day 3, Tango MRGPRX2 transfected cells were transferred into 96-well white clear-bottom cell culture plates at a density of 2×10^4 cells/well/80 μL (PerkinElmer Life Science).
IC50 under 9 µM gets 1, anything at or over 9 µM gets 0.

Please review the following examples before continuing.
{"columns": ["molecule", "qualitative.label"],
 "data": [
  ["COC(=O)c1cc2cc(NC(N)=O)ccc2cc1-c1cc2c3c(cccc3c1)C(=O)N(C)C2=O [GE0119]", 0],
  ["O=c1c(-c2ccc(O)cc2)coc2cc(O)cc(O)c12 [genistein, reference compound]", 0],
  ["COC(=O)c1cc2cc(NC(N)=O)ccc2cc1-c1ccc2c3c(cccc13)C(=O)C=C2 [GE1109]", 1],
  ["COC(=O)c1cc2cc(NC(N)=O)ccc2cc1-c1cc2c3c(c(O)ccc3c1)C(C)C(C=O)=C2 (stereo not shown) [GE1111]", 0]
]}

Would you kindly look at the next entry?
# check: IC50 < 9 µM for COC(=O)c1ccc2cc(-c3cc4c5c(cccc5c3)C(=O)N(C)C4=O)c(NC(N)=O)cc2c1 [GE0117]
0
